Taken from ChEMBL document CHEMBL4041526.

# EC50 values compiled below
- study system: UniProt:Q9HC97
- protocol: Agonist activity at GPR35 in human HT-29 cells by DMR assay
- Format: cell-based
- test parameters: read-out: EC50

Some solved cases for reference:
- compound string: "O=c1oc2c([N+](=O)[O-])c(O)c(Br)cc2cc1-c1nnn[nH]1"
  study system: "UniProt:Q9HC97"
  EC50: "5.8 nM"
- compound string: "O=C(O)c1cc2cc(Br)c(O)c([N+](=O)[O-])c2oc1=O"
  study system: "UniProt:Q9HC97"
  EC50: "51 nM"
- compound string: "O=C(O)c1cc2cc(Br)ccc2oc1=O"
  study system: "UniProt:Q9HC97"
  EC50: "10800 nM"
- compound string: "COc1c(Br)cc2cc(C#N)c(=O)oc2c1Br"
  study system: "UniProt:Q9HC97"
  EC50: "8220 nM"
- compound string: "O=c1oc2c(Br)c(O)c(Br)cc2cc1-c1nnn[nH]1"
  study system: "UniProt:Q9HC97"
  EC50: "68 nM"

The compound identified as O=C(O)c1cc2cc(Cl)ccc2oc1=O registered its EC50 at 13500 nM

// O=C(O)c1cc2cc(Cl)cc(Cl)c2oc1=O : EC50 value = 2020 nM

Recorded result, N#Cc1cc2cc(Br)c(O)cc2oc1=O , EC50: 9270 nM

The recorded EC50 for entry O=c1oc2c([N+](=O)[O-])cc(Br)cc2cc1-c1nnn[nH]1 equals 330 nM

The compound identified as N#Cc1cc2cc(Br)cc([N+](=O)[O-])c2oc1=O registered its EC50 at 700 nM

----------
- study system: G-protein coupled receptor 35 (Homo sapiens, UniProt Q9HC97)
- Sequence (Q9HC97 whole entry, the tested form may be a part): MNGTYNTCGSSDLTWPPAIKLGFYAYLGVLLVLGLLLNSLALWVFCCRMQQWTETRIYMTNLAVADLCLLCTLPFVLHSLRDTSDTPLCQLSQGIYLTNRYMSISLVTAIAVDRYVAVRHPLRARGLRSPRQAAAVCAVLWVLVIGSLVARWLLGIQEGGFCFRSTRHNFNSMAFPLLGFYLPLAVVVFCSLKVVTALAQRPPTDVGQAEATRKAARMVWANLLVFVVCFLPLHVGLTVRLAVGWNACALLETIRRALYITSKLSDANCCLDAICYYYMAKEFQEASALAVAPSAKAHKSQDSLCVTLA
- protocol: Agonist activity at human GPR35 expressed in CHO-K1 cells by DMR assay
- Assay type: cell-based
measurement type: EC50 (nM)
Please reply with the bare figure in nM and do not write the unit itself.

Please fill in: EC50 reported for O=C(O)c1cc(=O)c2c(OCC(O)COc3cccc4oc(C(=O)O)cc(=O)c34)cccc2o1 = 52

----------
// reported Efficacy for each item listed
- study system: G-protein coupled receptor 35 (Homo sapiens)
- protocol: Agonist activity at TEV protease cleavage site linked GAL4-VP16-fused GPR35 in human Tango GPR35-bla U2OS cells assessed as induction of TEV protease-tagged beta-arrestin recruitment incubated for 5 hrs by beta-lactamase reporter gene assay relative to zaprinast
Give the quantity in %, number only.

Efficacy value, target or system G-protein coupled receptor 35 (Homo sapiens), for O=c1oc2c([N+](=O)[O-])c(O)c([N+](=O)[O-])cc2cc1-c1nnn[nH]1 : 107

Measured Efficacy (G-protein coupled receptor 35 (Homo sapiens)), entry COc1c(Br)cc2cc(-c3nnn[nH]3)c(=O)oc2c1Br : 86.4

----------
- study system: G-protein coupled receptor 35 (Homo sapiens, UniProt Q9HC97)
- protocol: Agonist activity at GPR35 in human HT-29 cells assessed as induction of cell desensitization to 1 uM zaprinast preincubated for 1 hr followed by zaprinast stimulation measured after 8 minutes by DMR assay
pIC50: −log10 of the molar value.
Outcome: 1.0 for pIC50 of at least 6; 0.0 for anything lower.

Worked set:
- compound string: "N#Cc1cc2cc(Br)c(O)c(Br)c2oc1=O"
  class: 0.0
- compound string: "COc1c(Br)cc2cc(-c3nnn[nH]3)c(=O)oc2c1[N+](=O)[O-]"
  class: 0.0
- compound string: "O=c1oc2c(Br)cc(Br)cc2cc1-c1nnn[nH]1"
  class: 1.0
- compound string: "N#Cc1cc2cc(Cl)ccc2oc1=O"
  class: 0.0
- compound string: "O=C(O)c1cc2cc(Br)cc([N+](=O)[O-])c2oc1=O"
  class: 0.0

Identify whether the reported pIC50 of the following compound is 6 or greater: COc1c(Br)cc2cc(-c3nnn[nH]3)c(=O)oc2c1Br
1.0

Decide: is the reported value of pIC50 for O=C(O)c1cc2cc(Br)c(O)c(Br)c2oc1=O equal to or greater than 6?
1.0

Determine whether measured pIC50 meets or exceeds 6 for O=c1oc2ccccc2cc1-c1nn[nH]n1
0.0

Quick check, pIC50 >= 6? COc1c(Br)cc2cc(C#N)c(=O)oc2c1Br
1.0

Check this compound for pIC50 at or above 6: O=C(O)c1cc2cc(Br)ccc2oc1=O
0.0
